# pIC50 values compiled below
- Tested on: IL-1 production in LPS-stimulated PBMCs
- experimental-protocol: Inhibition of IL-1 production in LPS-stimulated PBMCs ("cell")
- Type: cell-based, human
- condition-description: Homo sapiens, PBMC
pIC50: −log10 of the molar value.

Completed entries (count: 2):
compound | pIC50
NC(=O)C(c1cccc(-c2ccc(F)c(Cl)c2)n1)c1c(Cl)cccc1Cl (centres unmarked) | ≤ 6.30
COC(=O)c1ccccc1Sc1ccc2c(-c3c(Cl)cccc3Cl)c(=O)ncn2n1 | ≥ 7.00

Sample NC(=O)N(c1cccc(-c2ccc(Cl)cc2)n1)c1c(Cl)cccc1Cl ; pIC50 observed: ≥ 7.00

Record summary for O=C(O)c1ccccc1Sc1ccc2c(-c3c(Cl)cccc3Cl)c(=O)ncn2n1 : reported pIC50 = ≤ 6.30

The measured pIC50 associated with COc1ccc(-c2c(=O)ncn3nc(Sc4ccc(F)cc4)ccc23)c(Cl)c1 reads 6.30 to 7.00

# pIC50 (compound: O=C(CCl)Nc1ccc(-c2c(=O)ncn3nc(Sc4ccc(F)cc4)ccc23)c(Cl)c1 ) is ≥ 7.00

pIC50 measured on N=C(N)Nc1cc(F)c(F)cc1SC1=NN2CNC(=O)C(c3c(Cl)cccc3Cl)=C2C=C1 = ≤ 6.30

The compound NC(=O)C(c1cccc(-c2ccccc2)n1)c1c(F)cccc1Cl (centres unmarked) showed pIC50 equal to 6.30 to 7.00
